Assay: Toxicity in human HepG2/C3A cells assessed as cell viability at 0.5 ug/ml after 14 days
Type: cell-based

COMPOUND | viability at 336 h, 0.5 ug/ml
CC[n+]1c(-c2ccccc2)c2cc(N)ccc2c2ccc(N)cc21.[Br-] [HOMIDIUM BROMIDE] | > 80%

* * *

Assay: Toxicity in human HepG2/C3A cells assessed as cell viability at 0.5 ug/ml after 10 days
Type: cell-based
TEST_READOUT: viability at 240 h, 0.5 ug/ml

MOLECULE | MEASURED_RESULT
CC[n+]1c(-c2ccccc2)c2cc(N)ccc2c2ccc(N)cc21.[Br-] [HOMIDIUM BROMIDE] | > 80%
